Provenance of the data: the supplement of paper PMC4022240

- Test Target: anti-H3K9me3 antibody ab8898
- Experiment Summary: peptide microarray binding signal (635 nm), min-max normalized on array (fraction of array maximum); higher = stronger binding
- Assay Context: peptide region: Unmod H1 variant; binder concentration: 1:10,000 dilution
Property: peptide microarray binding signal
Respond with the number and no other words.

Known peptide microarray binding signal results, listed for orientation:
>>> observed_result("LNKKASSVETKPG [Unmod H1 variant L N K K A S S V E T K P G]")
0.00127
>>> observed_result("SFRLAKSDEPKKS [Unmod H1 variant S F R L A K S D E P K K S]")
0.000923
>>> observed_result("KKAKKPKTVKAKP [Unmod H1 variant K K A K K P K T V K A K P]")
0.000634

Exam item: Need peptide microarray binding signal, item PKKAKAAKPKKAP [Unmod H1 variant P K K A K A A K P K K A P]
Marked response: 0.00773

Exam item: Also GAAKRKASGPPVS [Unmod H1 variant G A A K R K A S G P P V S] , if possible.
Marked response: 0.000634

Exam item: Also KKSTDHPKYSDMI [Unmod H1 variant K K S T D H P K Y S D M I] , if possible.
Marked response: 0.00075
